# target_or_test_system: T1, Prostate Specific Antigen (human (produced in the Human Secretome …, UniProt P07288 18-261, limits assumed))
# T1 construct: also called PSA; bPSA
# T1 sequence (P07288 18-261 limits assumed): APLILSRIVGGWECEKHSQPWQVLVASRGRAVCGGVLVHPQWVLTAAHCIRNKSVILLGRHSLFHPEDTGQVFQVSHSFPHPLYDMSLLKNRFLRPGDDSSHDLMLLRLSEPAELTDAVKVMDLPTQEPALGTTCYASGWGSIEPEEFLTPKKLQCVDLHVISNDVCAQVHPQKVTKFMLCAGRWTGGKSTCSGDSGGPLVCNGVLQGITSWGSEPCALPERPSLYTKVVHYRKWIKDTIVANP
# assay_overview: SPR Biacore T200, target on CM5 chip, ADAPT injected, 1:1 fit

[
  {
    "binder": "LFRAKVWAVWELDQYGVSDFYDELIWKAKTVEGVEALKLHILAALP (designed binder) [ADAPT variant PSA_05]",
    "readout_units": "nM",
    "Kd": 300
  },
  {
    "binder": "LTVAKFWALTELQEYGVSDFYANLITKAKTVEGVEALKLHILAALP (designed binder) [ADAPT variant PSA_01]",
    "readout_units": "nM",
    "Kd": 280
  }
]
